Experiment: self-splicing fitness, log relative to wild type (ln ratio); higher = more splicing; Tetrahymena group I intron in knt gene, E. coli kanamycin selection, DiMSum; sequences stand for … in CUCUCU…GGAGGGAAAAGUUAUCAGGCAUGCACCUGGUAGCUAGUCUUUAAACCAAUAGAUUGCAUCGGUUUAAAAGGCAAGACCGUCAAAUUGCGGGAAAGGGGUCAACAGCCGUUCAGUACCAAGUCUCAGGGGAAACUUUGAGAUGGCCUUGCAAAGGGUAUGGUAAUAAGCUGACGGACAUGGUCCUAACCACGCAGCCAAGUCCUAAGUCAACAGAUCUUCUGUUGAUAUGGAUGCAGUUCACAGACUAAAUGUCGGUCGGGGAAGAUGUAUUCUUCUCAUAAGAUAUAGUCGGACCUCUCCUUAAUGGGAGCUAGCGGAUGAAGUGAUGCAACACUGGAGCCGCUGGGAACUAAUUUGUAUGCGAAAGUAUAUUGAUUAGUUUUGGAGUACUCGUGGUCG;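 further: selection with 25 µg/mL kanamycin versus none on LB agar overnight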
Conditions: 30 °C
readout: self-splicing fitness (ln)

{"sequence": "CAUAAGCAAUAUUACGAGUU", "readout": "self-splicing fitness (ln)", "meas-value": -3.62}
{"sequence": "UCGAAGCAAUAUUACGGGCU", "readout": "self-splicing fitness (ln)", "meas-value": -4.18}
{"sequence": "GCCGAGCAAUAUUACGCAUC", "readout": "self-splicing fitness (ln)", "meas-value": -2.54}
{"sequence": "AAAAAGCAAUAUUACGCGAU", "readout": "self-splicing fitness (ln)", "meas-value": -2.51}
{"sequence": "AGUAAGCAAUAUUACGGAAA", "readout": "self-splicing fitness (ln)", "meas-value": -3.26}
{"sequence": "GCAAAGCAAUAUUACGUGGA", "readout": "self-splicing fitness (ln)", "meas-value": -2.07}
{"sequence": "UCUAAGCAAUAUUACGGCUG", "readout": "self-splicing fitness (ln)", "meas-value": -0.983}
{"sequence": "GUCCAGCAAUAUUACGCAGG", "readout": "self-splicing fitness (ln)", "meas-value": -4.01}
{"sequence": "UUUUAGCAAUAUUACGGGAC", "readout": "self-splicing fitness (ln)", "meas-value": -2.5}
{"sequence": "AAUUAGCAAUAUUACGUAAG", "readout": "self-splicing fitness (ln)", "meas-value": -1.82}
{"sequence": "AAAUAGCAAUAUUACGGUGG", "readout": "self-splicing fitness (ln)", "meas-value": -3.94}
{"sequence": "AUUGAGCAAUAUUACGGCGU", "readout": "self-splicing fitness (ln)", "meas-value": -0.734}
{"sequence": "GCGUAGCAAUAUUACGAUCU", "readout": "self-splicing fitness (ln)", "meas-value": -1.34}
{"sequence": "UGGAAGCAAUAUUACGUAAG", "readout": "self-splicing fitness (ln)", "meas-value": -1.07}
{"sequence": "AGGGAGCAAUAUUACGAAGU", "readout": "self-splicing fitness (ln)", "meas-value": -2.4}
{"sequence": "UGGAAGCAAUAUUACGCUGC", "readout": "self-splicing fitness (ln)", "meas-value": -3.48}
{"sequence": "CAUCAGCAAUAUUACGAGCC", "readout": "self-splicing fitness (ln)", "meas-value": -3.22}
{"sequence": "GUUGAGCAAUAUUACGGGAA", "readout": "self-splicing fitness (ln)", "meas-value": -3.4}
{"sequence": "GGCUAGCAAUAUUACGUAAU", "readout": "self-splicing fitness (ln)", "meas-value": -0.265}
{"sequence": "UCGAAGCAAUAUUACGCAGC", "readout": "self-splicing fitness (ln)", "meas-value": -2.71}
{"sequence": "UACCAGCAAUAUUACGAAAC", "readout": "self-splicing fitness (ln)", "meas-value": -2.69}
{"sequence": "GGAGAGCAAUAUUACGAUGU", "readout": "self-splicing fitness (ln)", "meas-value": -1.92}
{"sequence": "CGGGAGCAAUAUUACGAGCU", "readout": "self-splicing fitness (ln)", "meas-value": -3.18}
{"sequence": "CUUAAGCAAUAUUACGGUUG", "readout": "self-splicing fitness (ln)", "meas-value": -1.95}
{"sequence": "UUAUAGCAAUAUUACGAUUA", "readout": "self-splicing fitness (ln)", "meas-value": -0.871}
{"sequence": "UACAAGCAAUAUUACGCCCU", "readout": "self-splicing fitness (ln)", "meas-value": -0.317}
{"sequence": "AUCCAGCAAUAUUACGCGUA", "readout": "self-splicing fitness (ln)", "meas-value": -0.536}
{"sequence": "AACGAGCAAUAUUACGACGG", "readout": "self-splicing fitness (ln)", "meas-value": -4.27}
{"sequence": "CGGCAGCAAUAUUACGUGAU", "readout": "self-splicing fitness (ln)", "meas-value": -3.11}
{"sequence": "GGGAAGCAAUAUUACGACUG", "readout": "self-splicing fitness (ln)", "meas-value": -0.222}
{"sequence": "UAAAAGCAAUAUUACGGGCU", "readout": "self-splicing fitness (ln)", "meas-value": -2.79}
{"sequence": "AAUCAGCAAUAUUACGAACC", "readout": "self-splicing fitness (ln)", "meas-value": -0.433}
{"sequence": "CCGUAGCAAUAUUACGAAUU", "readout": "self-splicing fitness (ln)", "meas-value": -3.75}
{"sequence": "CAGGAGCAAUAUUACGGCCU", "readout": "self-splicing fitness (ln)", "meas-value": -2.22}
